target: glycine binding pocket of the NMDA receptor (Rattus norvegicus, UniProt P35439); construct: For isolation of the cell membranes, the cortices are homogenized; from tissue; host or cells: rat cerebral cortex membranes (male Sprague-Dawley); experiment: [3H]MDL-105,519 displacement studies (rat cortical membranes)
parameter: pIC50
To interpret pIC50, take it as minus log10 of a concentration measured in moles per litre.

Query: Recorded pIC50 for CC(Oc1cc(C(=O)O)cc2cc(Cl)cc(Cl)c12)C(=O)Nc1ccccc1CO (stereo not shown) , please?
Response: 5.92

* * *

target: glycine binding pocket of the NMDA receptor (Rattus norvegicus); construct: For isolation of the cell membranes, the cortices are homogenized; from tissue; host or cells: rat cerebral cortex membranes (male Sprague-Dawley); assay: [3H]MDL-105,519 displacement studies (rat cortical membranes); settings: displacement of 2 nM [3H]-MDL-105,519, rat cortical membranes; read-out: NMDA-MDL 105519-r-CTX - IC50
parameter: pIC50
Note: pIC50 values are expressed as the negative base-10 logarithm of concentration in M.

Reference set, count: 3
O=C(O)COc1ccc(CO)cc1NC(=O)COc1cc(C(=O)O)cc2cc(Cl)cc(Cl)c12	6.82
O=C(COc1cc(C(=O)O)cc2cc(Cl)cc(Cl)c12)Nc1nnn[nH]1	5.90
CN(C)C(=O)COc1ccccc1NC(=O)COc1cc(C(=O)O)cc2cc(Cl)cc(Cl)c12	6.87

Query: Item under review: `O=C(COc1cc(C(=O)O)cc2cc(Cl)cc(Cl)c12)Nc1ccc(CO)cc1` . Reported pIC50?
Response: 6.39

* * *

biological target: NMDA receptor glycine B site (Rattus norvegicus); test: Calcium FLIPR studies, rat cortical neurons (NMDA/D-Serine induced intracellular calcium); assay type: cell-based; parameters: Primary neurons are prepared from cortices of embryonal rats at day 17 of pregnancy; endogenous in cells; host or cells: primary rat cortical neurons (E17, 11-13 DIV); conditions: rat cortical neurons; stimulation with 30 μM NMDA and 1 μM D-Serine; antagonist pre-incubated 10 min; read-out: NMDA-FLIPR-rCTX-NAM - IC50
Param label: returns MET when IC50 < 5 µM, returns NOT MET otherwise, including exact equality.

COCC(Oc1cc(C(=O)O)cc2cc(Cl)cc(Cl)c12)C(=O)Nc1ccccc1OC (centres unmarked) [Example 74]	NOT MET
O=C(O)c1cc(OC(C(=O)O)c2ccccc2)c2c(Cl)cc(Cl)cc2c1 (centres unmarked) [Example 32]	NOT MET
O=C(O)c1cc(OCC(=O)N2c3ccccc3CC2c2nnn[nH]2)c2c(Cl)cc(Cl)cc2c1 (centres unmarked) [Example 99]	NOT MET
O=C(O)COc1ccccc1NC(=O)COc1cc(C(=O)O)cc2cc(Cl)cc(Cl)c12 [Example 42]	MET
O=C(O)Cc1ccc(NC(=O)COc2cc(C(=O)O)cc3cc(Cl)cc(Cl)c23)cc1 [Example 7]	MET
O=C(COc1cc(C(=O)O)cc2cc(Cl)cc(Cl)c12)Nc1ccccc1-c1nnn[nH]1 [Example 85]	MET
O=C(COc1cc(C(=O)O)cc2cc(Cl)cc(Cl)c12)Nc1ccccc1Cc1nnn[nH]1 [Example 100]	MET
O=C(O)COc1ccccc1CNC(=O)COc1cc(C(=O)O)cc2cc(Cl)cc(Cl)c12 [Example 59]	MET
CN(C(=O)COc1cc(C(=O)O)cc2cc(Cl)cc(Cl)c12)c1ccc(C(=O)O)cc1 [Example 14]	NOT MET
O=C(COc1cc(C(=O)O)cc2cc(Cl)cc(Cl)c12)Nc1ccccc1C(=O)O [Example 3]	MET

Query: Please indicate whether the reported IC50 of O=C(COc1cc(C(=O)O)cc2cc(Cl)cc(Cl)c12)Nc1cccc(Cc2nnn[nH]2)c1 [Example 90] is strictly below 5 µM.
Response: MET

Query: Lab note: confirm whether the reported IC50 for this molecule is below 5 µM, equality not counting. molecule: O=C(O)c1cc(OCC(=O)N2CCc3ccccc3C2)c2c(Cl)cc(Cl)cc2c1 [Example 52]
Response: NOT MET

Query: Determine whether this molecule shows IC50 lower than 5 µM (ties excluded): O=C(COc1cc(C(=O)O)cc2cc(Cl)cc(Cl)c12)NCc1ccccc1 [Example 18]
Response: NOT MET

Query: # strict comparison: is reported IC50 < 5 µM? input = CNC(=O)COc1ccccc1NC(=O)COc1cc(C(=O)O)cc2cc(Cl)cc(Cl)c12 [Example 91]
Response: NOT MET

Query: Please let me know if O=C(O)c1cc(OC2CCN(c3ccccc3)C2=O)c2c(Cl)cc(Cl)cc2c1 (centres unmarked) [Example 65] shows IC50 below 5 µM.
Response: NOT MET

Query: API: query returns whether the molecule falls strictly under 5 µM in IC50. Query: NC(=O)COc1ccccc1NC(=O)COc1cc(C(=O)O)cc2cc(Cl)cc(Cl)c12 [Example 95]
Response: NOT MET

* * *

Listing: pIC50 of selected compounds
target: NMDA receptor glycine B site (Rattus norvegicus, UniProt P35439); test: Whole cell patch-clamp recordings, rat hippocampal neurons (NMDA/D-Serine currents); assay type: cell-based; conditions: NMDA 200 μM + D-Serine 1 μM, -70 mV, read-out: NMDA-PC-r-HIC-NAM - IC50
Note on pIC50: it is the negative log10 of concentration, concentration in mol/L.

Query: Which pIC50 is reported for this compound? `CN(C(=O)COc1cc(C(=O)O)cc2cc(Cl)cc(Cl)c12)c1ccccc1C(=O)O`
Response: 6.70

* * *

target: NMDA receptor glycine B site (Rattus norvegicus); assay: Calcium FLIPR studies, rat cortical neurons (NMDA/D-Serine induced intracellular calcium); format: cell-based; parameters: Primary neurons are prepared from cortices of embryonal rats at day 17 of pregnancy; endogenous in cells; host or cells: primary rat cortical neurons (E17, 11-13 DIV); details: rat cortical neurons; stimulation with 30 μM NMDA and 1 μM D-Serine; antagonist pre-incubated 10 min; read-out: NMDA-FLIPR-rCTX-NAM - IC50
IC50 overview
I only need the number, in nM, no unit after it.

Worked cases, IC50 given:
NCc1ccc(NC(=O)COc2cc(C(=O)O)cc3cc(Cl)cc(Cl)c23)c(OCC(=O)O)c1 [Example 34]	211
O=C(O)c1cc(OCC(=O)N2CCCc3ccccc32)c2c(Cl)cc(Cl)cc2c1 [Example 50]	7410
O=C(COc1cc(C(=O)O)cc2cc(Cl)cc(Cl)c12)Nc1cccc(-c2nnn[nH]2)c1 [Example 101]	2270

Next compound, please.
Query: Under NMDA receptor glycine B site (Rattus norvegicus): IC50 value of O=C(O)COc1ccc(CO)cc1NC(=O)COc1cc(C(=O)O)cc2cc(Cl)cc(Cl)c12 [Example 94] ?
Response: 1050

* * *

Biological target: NMDA receptor glycine B site (Rattus norvegicus)
Test: Calcium FLIPR studies, rat cortical neurons (NMDA/D-Serine induced intracellular calcium)
Assay type: cell-based
Design: Primary neurons are prepared from cortices of embryonal rats at day 17 of pregnancy; endogenous in cells; host or cells: primary rat cortical neurons (E17, 11-13 DIV)
Settings: rat cortical neurons; stimulation with 30 μM NMDA and 1 μM D-Serine; antagonist pre-incubated 10 min; read-out: NMDA-FLIPR-rCTX-NAM - IC50
Procedure: Antagonistic potencies of the test compounds are functionally evaluated using electrophysiological whole cell patch-clamp recordings and/or fluorometric intracellular Ca^2+-imaging (FLIPR) screens. […] The increase of intracellular calcium after stimulation with 30 μM NMDA and 1 μM D-Serine is measured using the fluorometric imaging plate reader (FLIPR) and the Calcium-4-Kit (both Molecular Devices, Ismaning, Germany). […]
List of pIC50 values.
Expect pIC50 as a plain number equal to -log10 of the molar concentration.

COCC(Oc1cc(C(=O)O)cc2cc(Cl)cc(Cl)c12)C(=O)Nc1ccccc1 (stereo not shown)	5.19
O=C(O)Cc1ccc(NC(=O)COc2cc(C(=O)O)cc3cc(Cl)cc(Cl)c23)cn1	5.03
O=C(COc1cc(C(=O)O)cc2cc(Cl)cc(Cl)c12)Nc1nnn[nH]1	5.03

// switching to the query molecule
Query: Given `O=C(COc1cc(C(=O)O)cc2cc(Cl)cc(Cl)c12)Nc1ccc(OCc2nnn[nH]2)cc1` , state its recorded pIC50.
Response: 5.42

* * *

target: NMDA receptor glycine B site (Rattus norvegicus, UniProt P35439); experiment: Calcium FLIPR studies, rat cortical neurons (NMDA/D-Serine induced intracellular calcium); type: cell-based; parameters: Primary neurons are prepared from cortices of embryonal rats at day 17 of pregnancy; endogenous in cells; host or cells: primary rat cortical neurons (E17, 11-13 DIV); settings: rat cortical neurons; stimulation with 30 μM NMDA and 1 μM D-Serine; antagonist pre-incubated 10 min; read-out: NMDA-FLIPR-rCTX-NAM - IC50
Below: a set of entries, each annotated with reported pIC50.
pIC50 field: float, defined as -log10 of concentration (mol/L).

O=C(COc1cc(C(=O)O)cc2cc(Cl)cc(Cl)c12)NCc1ccncc1	5.15

Query: So what's the measured pIC50 for this one? `O=C(COc1cc(C(=O)O)cc2cc(Cl)cc(Cl)c12)NCc1cccc(-c2nnn[nH]2)c1`
Response: 5.84

Query: I'd like to know its pIC50. The molecule in question is `O=C(O)Cc1cccc(NC(=O)COc2cc(C(=O)O)cc3cc(Cl)cc(Cl)c23)c1`
Response: 5.71
